Each record here notes measured protein stability index.
B1: C1orf137 (parent)
chain: RQHHHQSSFPGSLPQETNLTLKVC

# Variants of: B1
# assay_details: protein stability index of a GFP-peptide fusion (GPS, HEK-293T) (PSI 1-6); higher = more stable;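 also: lentivirally expressed fusions sorted by FACS into six bins by GFP to DsRed ratio, PSI derived from sequencing read proportions per bin multiplied by bin number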
# condition_label: c terminus: a fixed tail appended
Form field (numeric): enter value without unit.

{"variant_annotation": "L19F", "observed_property": "protein stability index", "data_value": 2.47}
{"variant_annotation": "S12E", "observed_property": "protein stability index", "data_value": 3.46}
{"variant_annotation": "Q6V", "observed_property": "protein stability index", "data_value": 2.89}

[in] Return value of protein stability index for input H4M , no commentary.
[out] 2.37

[in] Return value of protein stability index for input E16G , no commentary.
[out] 2.39

Data origin, for the record: the supplement of paper PMC10567573
